Numbers sourced from ChEMBL document CHEMBL3988442.

Target: Tyrosyl-tRNA synthetase, putative (Trypanosoma cruzi (strain CL Brener)) (UniProt Q4DSP6)
Sequence (Q4DSP6 as listed by the source): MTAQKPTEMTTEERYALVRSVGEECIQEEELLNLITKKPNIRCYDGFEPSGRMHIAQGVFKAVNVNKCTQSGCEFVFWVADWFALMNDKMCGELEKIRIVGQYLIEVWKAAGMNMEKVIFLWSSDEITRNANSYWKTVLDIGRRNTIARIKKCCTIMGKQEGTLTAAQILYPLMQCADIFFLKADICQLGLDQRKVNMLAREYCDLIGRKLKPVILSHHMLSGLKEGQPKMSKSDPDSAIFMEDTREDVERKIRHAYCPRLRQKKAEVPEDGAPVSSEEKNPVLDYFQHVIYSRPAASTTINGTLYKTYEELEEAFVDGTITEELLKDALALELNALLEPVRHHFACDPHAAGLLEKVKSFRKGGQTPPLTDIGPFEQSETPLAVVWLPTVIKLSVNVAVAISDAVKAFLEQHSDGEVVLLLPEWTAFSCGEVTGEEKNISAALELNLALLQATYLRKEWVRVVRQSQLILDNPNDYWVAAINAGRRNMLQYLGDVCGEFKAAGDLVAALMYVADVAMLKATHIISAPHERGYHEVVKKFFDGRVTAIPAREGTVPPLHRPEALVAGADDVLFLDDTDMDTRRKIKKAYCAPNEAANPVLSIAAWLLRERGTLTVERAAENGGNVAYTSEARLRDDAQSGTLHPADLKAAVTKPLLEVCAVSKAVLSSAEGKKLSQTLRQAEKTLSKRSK
Experiment: Trypanosoma cruzi tyrosyl tRNA synthetase (TcYRS) SOP
Format: functional
Parameters: scale not given: direction of the effect not stated beside the values
Conditions: 30 µM
VALUE TYPE: Percent Effect

Consider the following illustrative entries.
If you can, please state the reported Percent Effect value of `Cc1nc(C)c(CC(=O)N2C[C@H]3CC[C@@H]2CN(C(=O)N(C)C)C3)c(=O)[nH]1` .
-1.24%

Which Percent Effect is reported for this molecule? O=C(COCC1CC1)N1CCCC(n2cccn2)C1 (stereo unspecified)
-7.59%

Look up Percent Effect: `CO[C@H]1CCN(S(=O)(=O)c2cn(C)cn2)[C@H]1Cc1cnn(C)c1`
-25%

Fill in the blank: the reported Percent Effect of `CCc1cnc2c(c1Nc1ccc(OC)cc1)c(=O)n(C)c(=O)n2C` is ____.
8.97%

Quick one: Percent Effect for COc1ccc(CN2CCCC3(CCN(c4ccsc4)C3=O)C2)cc1 (stereo unspecified) ?
3.85%

Entry Cc1nc(CN2CCOC(Cn3cncn3)C2)nc2ccccc12 (stereo unspecified) has what Percent Effect?
0%

Can you share its Percent Effect? I mean this molecule: `CC(C)(O)CN1CCN(C(=O)c2cc3ccccc3c(=O)[nH]2)CC1`
13%

Which Percent Effect reading was recorded for the molecule `Cc1noc(Cl)c1CCC(=O)N1CCC(CC(N)=O)CC1` ?
18.5%

Which Percent Effect reading was recorded for the molecule COCCc1noc(CN2CCN(CC(O)c3ccccc3)CC2)n1 (stereo unspecified) ?
10.1%

Entry `Cc1cccc(OCCC(=O)N2CCN(S(=O)(=O)N(C)C)CC2)c1C` : reported Percent Effect = ?
16.5%

Then this molecule:
Look up Percent Effect: `Cc1csc2nc3n(c(=O)c12)CCN(C(=O)c1ccncc1)CC3`
11.7%

----------
As shown below, each of these compounds has a reported Percent Effect value.
Biological target: Protein translocase subunit SecA (Escherichia coli (strain K12)) (UniProt P10408)
Sequence (P10408 whole entry): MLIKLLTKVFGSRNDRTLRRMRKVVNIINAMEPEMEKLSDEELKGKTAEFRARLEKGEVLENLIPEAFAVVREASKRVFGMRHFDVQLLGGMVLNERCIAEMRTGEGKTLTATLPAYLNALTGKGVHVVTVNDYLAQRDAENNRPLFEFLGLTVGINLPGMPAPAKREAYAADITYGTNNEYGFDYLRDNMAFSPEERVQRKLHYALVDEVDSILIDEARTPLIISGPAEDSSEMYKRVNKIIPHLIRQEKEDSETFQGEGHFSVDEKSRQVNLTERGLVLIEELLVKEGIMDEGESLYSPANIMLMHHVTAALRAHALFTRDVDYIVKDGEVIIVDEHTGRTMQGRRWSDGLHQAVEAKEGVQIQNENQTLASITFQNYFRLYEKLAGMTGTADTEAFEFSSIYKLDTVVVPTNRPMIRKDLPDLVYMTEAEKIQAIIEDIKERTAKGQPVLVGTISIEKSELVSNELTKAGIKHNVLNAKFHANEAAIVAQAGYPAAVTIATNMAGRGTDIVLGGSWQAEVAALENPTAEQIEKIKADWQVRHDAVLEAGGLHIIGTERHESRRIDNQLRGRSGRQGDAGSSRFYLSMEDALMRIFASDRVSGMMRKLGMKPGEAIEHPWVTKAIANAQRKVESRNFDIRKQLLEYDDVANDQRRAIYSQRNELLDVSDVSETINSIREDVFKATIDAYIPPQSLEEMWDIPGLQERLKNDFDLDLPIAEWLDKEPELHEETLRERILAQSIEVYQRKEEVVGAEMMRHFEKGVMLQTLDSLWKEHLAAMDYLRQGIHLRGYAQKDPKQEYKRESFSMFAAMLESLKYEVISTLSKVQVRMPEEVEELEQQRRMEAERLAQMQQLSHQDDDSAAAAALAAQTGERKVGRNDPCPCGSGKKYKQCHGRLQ
Experiment: Assay to Identify E. coli SecA ATPase Inhibitors
Format: functional
Design: scale not given: direction of the effect not stated beside the values
Details: 30 µM
Measured potencies and affinities stand elsewhere.
Write the value in % as a bare number.

Please tell me: Percent Effect of `NS(=O)(=O)N1CCc2ccc(NC(=O)Cc3ccc(F)cc3)cc21` , system Protein translocase subunit SecA (Escherichia coli (strain K12)) (UniProt P10408)?
-2.62

Record `Cc1csc2nc3n(c(=O)c12)CCN(C(=O)c1ccncc1)CC3` : what is its Percent Effect with Protein translocase subunit SecA (Escherichia coli (strain K12)) (UniProt P10408)?
-6.48

What Percent Effect appears in the records for this compound with Protein translocase subunit SecA (Escherichia coli (strain K12)) (UniProt P10408)? Cc1ccccc1C1CCCN1C(=O)CN1CC2(CCNCC2)OC1=O (centres undefined)
-4.66

Recall the recorded Percent Effect for `Cc1cc2c(=O)n3c(nc2s1)CCN(C(=O)c1cnn(C)c1C)CC3` with Protein translocase subunit SecA (Escherichia coli (strain K12)) (UniProt P10408) and state it.
-6.2

Give Protein translocase subunit SecA (Escherichia coli (strain K12)) (UniProt P10408) Percent Effect for COC(=O)C(C)(C)NC(=O)C1CC(=O)N(C)C1 (centres undefined)
-1.38

What Percent Effect appears in the records for this compound with Protein translocase subunit SecA (Escherichia coli (strain K12)) (UniProt P10408)? NC(=O)COc1cccc(C(=O)N2CCCC(n3cccn3)C2)c1 (centres undefined)
-3.05

Further cases:
Which measured Percent Effect belongs to CCC1CN(C(=O)Nc2cnc3c(cnn3C(C)C)c2)CCO1 (centres undefined) , tested on Protein translocase subunit SecA (Escherichia coli (strain K12)) (UniProt P10408)?
0.162

Form entry - test system: Protein translocase subunit SecA (Escherichia coli (strain K12)) (UniProt P10408); read-out: Percent Effect; compound: COc1ccc(NC(C)C(=O)N2CCN(c3ncccn3)CC2)cn1 (centres undefined)
-5.21

I'm curious: which Percent Effect was measured for Cc1ccc(CN2Cc3nnn(C)c3C(COCCN(C)C)C2)s1 (centres undefined) tested on Protein translocase subunit SecA (Escherichia coli (strain K12)) (UniProt P10408)?
-6.87

Which Percent Effect is reported with Protein translocase subunit SecA (Escherichia coli (strain K12)) (UniProt P10408) for this entry: COCCC1COC2(CCN(C(=O)c3ccco3)CC2)C1 (centres undefined) ?
-2.43

Notebook: pull reported Percent Effect for Protein translocase subunit SecA (Escherichia coli (strain K12)) (UniProt P10408), entry CCn1cc(NC(=O)NCC2(N3CCOCC3)CCSC2)cn1 (centres undefined)
-1.63

Please tell me: Percent Effect of `CN(C)c1cc(CNC(=O)c2cn(-c3ccc(F)cc3)nn2)ccn1` , system Protein translocase subunit SecA (Escherichia coli (strain K12)) (UniProt P10408)?
-5.01

Give Protein translocase subunit SecA (Escherichia coli (strain K12)) (UniProt P10408) Percent Effect for `CN(C)C(=O)Cc1ccc(NC(=O)NC2CCCCC2)cc1`
-1.35

Give the reported Percent Effect for `O=C(Cc1ccccn1)N1CCN(C(=O)c2cccc3[nH]ncc23)CC1` (system: Protein translocase subunit SecA (Escherichia coli (strain K12)) (UniProt P10408)).
-1.44

Percent Effect of `Cc1ccc(N2CCCN(C(=O)c3cc(Cl)c[nH]3)CC2)nn1` on Protein translocase subunit SecA (Escherichia coli (strain K12)) (UniProt P10408)?
-3.96

Provide value of Percent Effect for this record tested with Protein translocase subunit SecA (Escherichia coli (strain K12)) (UniProt P10408): Cc1ccccc1CNc1nc(O)cc(C2CC(=O)N(C)C2)n1 (centres undefined)
3.9

Query for Protein translocase subunit SecA (Escherichia coli (strain K12)) (UniProt P10408): what Percent Effect does the record show for Cn1cc(CNC2CCCN(Cc3noc(C4CC4)n3)C2)cn1 (centres undefined) ?
-1.45

----------
Overview of recorded Percent Effect for various compounds
Biological target: Proteasome subunit beta (Trypanosoma cruzi) (UniProt O96673)
Sequence (O96673 as listed by the source): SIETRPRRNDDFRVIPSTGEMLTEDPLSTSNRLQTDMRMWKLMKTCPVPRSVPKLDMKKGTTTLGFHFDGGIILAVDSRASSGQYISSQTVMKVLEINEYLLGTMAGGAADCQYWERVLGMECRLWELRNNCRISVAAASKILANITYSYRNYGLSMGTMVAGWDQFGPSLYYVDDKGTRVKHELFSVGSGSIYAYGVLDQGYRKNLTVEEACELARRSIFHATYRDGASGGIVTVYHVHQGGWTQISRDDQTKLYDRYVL
Assay: Trypanosoma cruzi proteasome chymotrypsin-like activity (TcProtChymo) assay. Also: in the data most compounds retested in dose-response had high values.
Assay type: functional
Set-up: scale not given: direction of the effect not stated beside the values
Settings: 9.37 µM
Hi! Could you send only the number? It should be in %, unit omitted.

Below: 5 compounds and their reported Percent Effect.
Which Percent Effect value is on record for `N#Cc1ccccc1CN1C[C@@H]2CC[C@H](C1)N(Cc1cscn1)C2=O` ?
9.14

Dear colleague, I am looking for the recorded Percent Effect of the following compound: `COc1cc2cc(C(=O)O)n(C)c2cc1OC`
9.61

So what does the record say about Percent Effect for `CNS(=O)(=O)Cc1ccc(CNC(=O)Nc2cn[nH]c2)cc1` ?
8.11

Which Percent Effect reading was recorded for the compound CCCc1noc(CCC(=O)NC(C)c2nnc3n2CCCCC3)n1 (centres undefined) ?
19.5

Quick check: Percent Effect of Cc1cc(=O)[nH]c(NCCNC(=O)C(c2ccc(F)cc2)N(C)C)n1 (centres undefined) ?
17.4

Attention now turns to another entry.
Any idea what Percent Effect was measured for Cc1[nH]ncc1C(=O)N1CCCC(c2cc(C(F)(F)F)[nH]n2)C1 (centres undefined) ?
2.69

----------
Biological target: Tyrosyl-tRNA synthetase, putative (Trypanosoma cruzi (strain CL Brener)) (UniProt Q4DSP6)
Assay: Trypanosoma cruzi tyrosyl tRNA synthetase (TcYRS) _High Tyrosine SOP; also: in the data most compounds retested in dose-response had high values
Assay type: functional
Design: scale not given: direction of the effect not stated beside the values
Conditions: 30 µM
# reported Percent Effect; entries follow
Give the number; % is assumed, so skip it.

Provide the documented Percent Effect with Tyrosyl-tRNA synthetase, putative (Trypanosoma cruzi (strain CL Brener)) (UniProt Q4DSP6) as the system for `CCc1nc(CC(=O)N2CCn3c(nnc3C(C)C)C2)cs1`
2.45

Recall the recorded Percent Effect for CCC1CN(Cc2ccccc2)CCN1Cc1nnc(C2CCC2)o1 (configuration not stated) with Tyrosyl-tRNA synthetase, putative (Trypanosoma cruzi (strain CL Brener)) (UniProt Q4DSP6) and state it.
1.07

Give Tyrosyl-tRNA synthetase, putative (Trypanosoma cruzi (strain CL Brener)) (UniProt Q4DSP6) Percent Effect for COCC1c2c(cnn2C)CCN1Cc1ccc(F)cc1 (configuration not stated)
5.94

More entries:
Find Percent Effect (Tyrosyl-tRNA synthetase, putative (Trypanosoma cruzi (strain CL Brener)) (UniProt Q4DSP6)) for the entry `O=C(c1cccs1)N1CCC(Cn2nc(-c3ccco3)ccc2=O)CC1`
10.8

Requested read-out Percent Effect, target or system Tyrosyl-tRNA synthetase, putative (Trypanosoma cruzi (strain CL Brener)) (UniProt Q4DSP6), entry `COCCOCC(=O)Nc1ccc(Br)cc1F`
1.06

Kindly state the measured Percent Effect obtained for CC(=O)N1CCC(Cc2cnc(-c3c(C)n[nH]c3C)cn2)C1 (configuration not stated) with Tyrosyl-tRNA synthetase, putative (Trypanosoma cruzi (strain CL Brener)) (UniProt Q4DSP6).
3.19

Look up Percent Effect with Tyrosyl-tRNA synthetase, putative (Trypanosoma cruzi (strain CL Brener)) (UniProt Q4DSP6) for this molecule: CN1C(=O)CC(C(=O)O)C12CCN(Cc1ccc(F)cc1Cl)CC2 (configuration not stated)
8.2

Can you look up Percent Effect on Tyrosyl-tRNA synthetase, putative (Trypanosoma cruzi (strain CL Brener)) (UniProt Q4DSP6) for Nc1nc(CN2CCOC(Cn3cncn3)C2)nc2ccccc12 (configuration not stated) ?
1.98

Return Percent Effect measured with Tyrosyl-tRNA synthetase, putative (Trypanosoma cruzi (strain CL Brener)) (UniProt Q4DSP6) given this molecule: `O=C(c1ccncn1)N1CCO[C@H]2[C@@H](OCc3cccnc3)CC[C@@H]21`
-6.25

Observed Percent Effect on Tyrosyl-tRNA synthetase, putative (Trypanosoma cruzi (strain CL Brener)) (UniProt Q4DSP6) for Cc1nn(C)c2sc(C(=O)N3CCCC(n4ccnc4C)C3)cc12 (configuration not stated) , please.
4.25

What reported Percent Effect corresponds to c1ccc2sc(CN3CCOC(Cn4cccn4)C3)nc2c1 (configuration not stated) on Tyrosyl-tRNA synthetase, putative (Trypanosoma cruzi (strain CL Brener)) (UniProt Q4DSP6)?
-0.493

What measured Percent Effect is associated with COc1ccc(OC)c(NC(=O)NCC(O)c2ccc(F)c(F)c2)c1 (configuration not stated) on Tyrosyl-tRNA synthetase, putative (Trypanosoma cruzi (strain CL Brener)) (UniProt Q4DSP6)?
-1.04
